- Tested on: HS 578T breast
- ASSAY_TEXT: NCI-60 one-dose screen, 48 h
- CONDITION_NOTES: 10 µM unless noted
The panel holds about 83,000 compounds, 20% with a hit somewhere; the sample as a whole holds those more often. Activity calls are given as the source filed them. Rule for the calls: active = growth percent below 10; inactive = the rest.
Classes used: active, inactive

1. N#C/C(=C\c1ccc(Br)cc1)n1nnc2c(F)cccc21; inactive
2. Cc1ccc(Cl)cc1N1CCN(C(=O)[C@@H]2C[C@@H]2c2ccc(F)cc2)CC1; inactive
3. OCc1cc(CN2CCCCC2)c(O)c2ncccc12; inactive
4. CCOc1ccccc1NC(=O)c1cc2ccccc2cc1O; inactive
5. N#CC(Cc1cccc2ccccc12)c1cc2ccccc2[nH]1 (stereo not drawn); inactive
6. CN1CCN(Cc2ccc(NC(=O)c3nc4ccc5[nH]ncc5c4c4c3CCCC4)cc2C(F)(F)F)CC1; active
7. C=CCNC(=O)Cc1c(-c2ccc(OC)cc2)oc2c(OC)c3c(c(OC)c12)OCO3; inactive
8. Cc1nn(-c2nc(-c3cc4ccccc4oc3=O)cs2)c(C)c1N=Nc1ccccc1; inactive
9. C=C(C)[C@@H]1CC[C@]2(C(=O)N3CCN(C)CC3)CC[C@]3(C)[C@H](CC[C@@H]4[C@@]5(C)CC(CCCNC(C)=O)(CCCNC(C)=O)[C@H](OC(C)=O)C(C)(C)[C@@H]5CC[C@]43C)[C@@H]12; inactive
10. COc1ccc(S(=O)(=O)Nc2cc(Sc3cccc4cccnc34)c(O)c3ccccc23)cc1; inactive
11. COc1ccc2c(c1)oc1c(C)c3c(c(C)c12)C(=O)N(Nc1ccccc1)C3=O; inactive
12. O=C(NCc1cccnc1)/C(=C\c1ccc(Br)cc1)S(=O)(=O)c1ccccc1; inactive
13. COC(=O)/C=C1/SC(N2N=C(c3cccs3)CC2c2ccc(F)cc2)=NC1=O (stereo not drawn); inactive
14. Nc1ccc(/C=N/Nc2ccnc3c(N)cccc23)c2cccnc12; active
15. Cc1ccc2nc3ccccc3c(NCc3ccc(Cl)cc3)c2c1; inactive
16. C=C1C(=O)O[C@H]2[C@H]1CC/C(COC(=O)NCCCCNC(=O)OC/C1=C/CC[C@@]3(C)O[C@H]3[C@H]3OC(=O)C(=C)[C@@H]3CC1)=C\CC[C@@]1(C)O[C@@H]21; inactive
17. O=C(/C=C\c1ccc(Cl)c(Cl)c1)c1ccccc1; inactive
18. O=C(CCN1CCOCC1)Nc1cccc(-n2cc(-c3ccncc3)c(-c3ccc(Cl)c(O)c3)n2)c1; active
19. O=C1C(Nc2ccc(Cl)cc2)=C(I)C(=O)c2ncccc21; inactive
20. CCN(CC)CC(=O)Nc1ccc2ncnc(Nc3ccc(Oc4cccc(F)c4)c(Cl)c3)c2c1; inactive
21. COc1ccc(/C=N/NC(=O)CN2CCN(c3cc4c(cc3F)c(=O)c(C(=O)O)cn4C3CC3)CC2)cc1O; inactive
22. O=C(CCCCCCCCC(=O)N/N=C\c1ccccc1O)N/N=C\c1ccccc1O; inactive
23. O=C([C@H]1C[C@H]1c1ccc(S(F)(F)(F)(F)F)cc1)N1CCN(c2cc(Cl)ccc2C(F)(F)F)CC1; inactive
24. COc1ccc(C2Nc3nc(SC)nc(N)c3N=C3c4ccccc4CCC32)cc1 (stereo not drawn); inactive
25. CCCNNC(=O)/C=C/c1ccc(CNCCc2c(C)[nH]c3ccccc23)cc1; inactive
26. Cc1cc(N2CCCCC2)nc(NCc2cc(Nc3ccnc4cc(Cl)ccc34)ccc2F)n1; inactive
27. COC1/C=C/OC2(C)Oc3c(C)c(O)c4c(O)c(c(C=NOC(c5ccccc5)c5ccccc5)c(O)c4c3C2=O)NC(=O)/C(C)=C/C=C/C(C)C(O)C(C)C(O)C(C)C(OC(C)=O)C1C (stereo not drawn); active
28. Cn1ccnc1CN1CCSC(C(=O)Nc2ccccc2)C1 (stereo not drawn); inactive

Recorded values, source PubChem BioAssay (NCI).
